Study Target: T1, human serum albumin (human, UniProt P02768 25-609)
T1 construct: Amine-coupled to the chip (EDC/NHS); also called HSA
T1 sequence (P02768 25-609 limits assumed): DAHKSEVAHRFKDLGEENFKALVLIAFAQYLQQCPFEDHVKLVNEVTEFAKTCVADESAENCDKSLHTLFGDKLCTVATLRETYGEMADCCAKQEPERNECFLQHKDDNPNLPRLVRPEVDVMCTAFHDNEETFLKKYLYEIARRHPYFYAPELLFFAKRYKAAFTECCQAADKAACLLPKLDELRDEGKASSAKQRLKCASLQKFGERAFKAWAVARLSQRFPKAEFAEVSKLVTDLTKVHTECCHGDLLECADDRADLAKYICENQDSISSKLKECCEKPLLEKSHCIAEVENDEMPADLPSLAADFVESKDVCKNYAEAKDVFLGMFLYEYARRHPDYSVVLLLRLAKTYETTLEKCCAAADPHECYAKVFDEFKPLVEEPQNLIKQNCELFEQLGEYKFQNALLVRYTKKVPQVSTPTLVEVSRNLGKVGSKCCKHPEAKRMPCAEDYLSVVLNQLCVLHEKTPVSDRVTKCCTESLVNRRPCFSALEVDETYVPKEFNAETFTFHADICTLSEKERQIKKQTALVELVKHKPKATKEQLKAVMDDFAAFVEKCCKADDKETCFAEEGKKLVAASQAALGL
Protocol Description: ProteOn kinetic analysis
Quantity: Kd

* SEQ ID NO 127 (VHH, also called T at position 30) VHH: DVQLVESGGGVVQPGGSLRLSCAASGFTFTSFGMSWVRQAPGKGPEWVSSISGSGSDTLYADSVKGRFTISRDNSKNTLYLQMNSLRPEDTALYYCTIGGSLSRSGQGTLVTVSS | 2 nM
* SEQ ID NO 145 (VHH, also called T at position 30) VHH: DVQLVESGGGVVQPGGSLRLSCAASGFTFTSFGMSWVRQAPGKGPEWVSSISGSGSDTLYADSVKGRFTISRDNSKNTLYLQMNSLRPEDTAAYYCTIGGSLSRSGQGTLVTVSS | 2.1 nM
* SEQ ID NO 10 (VHH, also called R at position 30) VHH: EVQLVESGGGVVQPGGSLRLSCAASGFTFRSFGMSWVRQAPGKGPEWVSSISGSGSDTLYADSVKGRFTISRDNSKNTLYLQMNSLRPEDTALYYCTIGGSLSRSSQGTLVTVSS | 0.83 nM
* SEQ ID NO 129 (VHH, also called T at position 30) VHH: DVQLVESGGGVVQPGGSLRLSCAASGFTFTSFGMSWVRQAPGKGPEWVSSISGSGSDTLYADSVKGRFTISRDNSKNTLYLQMNSLRPEDTATYYCTIGGSLSRSGQGTLVTVSS | 2.1 nM
